- Assay Target: Short transient receptor potential channel 4 (Mus musculus)
- Sequence (Q9QUQ5 whole entry): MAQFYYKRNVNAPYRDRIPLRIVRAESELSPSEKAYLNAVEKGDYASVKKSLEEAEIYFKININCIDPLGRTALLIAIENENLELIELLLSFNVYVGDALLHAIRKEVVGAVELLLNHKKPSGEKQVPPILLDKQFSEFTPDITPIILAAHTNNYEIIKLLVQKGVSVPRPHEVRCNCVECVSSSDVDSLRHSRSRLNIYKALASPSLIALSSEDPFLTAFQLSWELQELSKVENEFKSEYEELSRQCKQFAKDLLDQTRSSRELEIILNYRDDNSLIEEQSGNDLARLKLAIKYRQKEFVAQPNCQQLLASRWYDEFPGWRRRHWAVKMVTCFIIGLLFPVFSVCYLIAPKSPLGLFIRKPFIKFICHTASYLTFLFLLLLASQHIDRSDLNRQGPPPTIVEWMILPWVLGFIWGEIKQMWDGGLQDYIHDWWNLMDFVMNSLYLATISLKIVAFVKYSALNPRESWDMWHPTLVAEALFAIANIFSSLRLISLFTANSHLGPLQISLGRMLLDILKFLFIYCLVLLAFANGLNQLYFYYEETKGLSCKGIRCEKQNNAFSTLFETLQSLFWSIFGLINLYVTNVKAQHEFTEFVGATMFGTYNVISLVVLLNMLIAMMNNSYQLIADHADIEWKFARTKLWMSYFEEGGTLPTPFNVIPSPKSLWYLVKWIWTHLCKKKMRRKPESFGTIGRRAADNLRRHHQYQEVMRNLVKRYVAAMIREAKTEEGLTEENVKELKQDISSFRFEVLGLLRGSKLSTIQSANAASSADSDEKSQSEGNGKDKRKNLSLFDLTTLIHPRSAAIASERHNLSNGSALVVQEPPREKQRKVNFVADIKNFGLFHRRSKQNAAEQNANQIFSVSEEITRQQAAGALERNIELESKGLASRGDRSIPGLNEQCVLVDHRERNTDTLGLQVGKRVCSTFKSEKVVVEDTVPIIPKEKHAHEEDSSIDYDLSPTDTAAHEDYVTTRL
- Experiment Notes: calcium entry via TRPC4 opening agents – cell-based, HEK293 TRPC4/mu-opioid, Fluo-4 calcium, dose response (AID 434937)
- Type: functional
The source made the active and inactive calls. The rule behind the calls is not given here.
Assay Endpoint: EC50

Molecule: Cc1csc2c(N3CCN(C(S)=Nc4ccc(F)cc4F)CC3)ncnc12
EC50: 1880 nM (active)
//
Molecule: Cc1cccc2cc(C(c3nnnn3Cc3ccccc3)N3CCN(C)CC3)c(O)nc12 (configuration not stated)
EC50: 1880 nM (active)
//
Molecule: CN(C)CCCN(C(=O)c1ccc(S(=O)(=O)N2CCCc3ccccc32)cc1)c1nc2ccc(F)cc2s1
EC50: 2370 nM (active)
//
Molecule: CCC(=O)C(CCN1CCOCC1)(c1ccccc1)c1ccccc1
EC50: 376 nM (active)
//
Molecule: Cc1onc(-c2ccccc2)c1C(=O)NNC(=S)NC(=O)c1ccc(F)cc1
EC50: 5960 nM (active)

Incoming: So what does the record say about EC50 for CC(Oc1ccc(Cl)cc1)C(=O)NNC(=S)NC(=O)c1ccco1 (configuration not stated) ?
Outgoing: 5310 nM (active)

Incoming: So what does the record say about EC50 for CCOC(=O)C1(Cc2ccccc2)CCN(Cc2cccn2-c2cccnc2)CC1 ?
Outgoing: 841 nM (active)

Where do these numbers come from? They come from ChEMBL document CHEMBL1201862.
